# subjectOfTest: T1, 4H32-AA
# T1 chain: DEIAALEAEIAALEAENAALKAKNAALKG
# measurementDescription: two-hybrid library CCmax;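 further: natural log of median RNA to DNA barcode read ratio; higher means stronger binding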
# appliedConditions: mean of both orientations
endpoint: interaction score

{"columns": ["binder", "number"],
 "data": [
  ["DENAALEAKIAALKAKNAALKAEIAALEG [4H1401-AA]", 0.0762],
  ["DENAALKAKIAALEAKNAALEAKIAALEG [4H1845-AA]", -1.5],
  ["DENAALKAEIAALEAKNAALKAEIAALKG [4H1594-AA]", -1.19],
  ["DKIAALEAKNAALKAKNAALKAEIAALEG [4H2553-AA]", -0.574],
  ["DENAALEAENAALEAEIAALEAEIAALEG [4H1153-AA]", -2.43],
  ["DKNAALEAEIAALEAKNAALKAKIAALEG [4H3133-AA]", -1.83]
]}

[a] DKIAALKAKNAALKAKIAALKAKNAALKG [4H3056-AA]
[b] DKIAALKAKIAALKAENAALKAENAALEG [4H2907-AA]
[c] DKIAALKAEIAALEAKNAALKAENAALKG [4H2620-AA]
In: List from greatest to least interaction score. Write the labels out in the order the request specifies.
Out: b, c, a

[a] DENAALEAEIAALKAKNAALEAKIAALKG [4H1142-AA]
[b] DKIAALKAEIAALKAENAALEAKNAALKG [4H2648-AA]
[c] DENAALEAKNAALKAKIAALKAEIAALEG [4H1513-AA]
In: Sort (3 binders) by interaction score: min first. Show the ranking through the labels, in the order asked for.
Out: a, c, b
